The reported numbers originate from patent US20250340659A1.

Record form. Attribute: GEO mean difference. Fill in for each entry.
# Experimental target: T1, canine OX40L, full length membrane form, expressed on HEK293 cells (canine)
# T1 construct: also called OX40L expressing HEK; HEK OX40L cells
# T1 chain: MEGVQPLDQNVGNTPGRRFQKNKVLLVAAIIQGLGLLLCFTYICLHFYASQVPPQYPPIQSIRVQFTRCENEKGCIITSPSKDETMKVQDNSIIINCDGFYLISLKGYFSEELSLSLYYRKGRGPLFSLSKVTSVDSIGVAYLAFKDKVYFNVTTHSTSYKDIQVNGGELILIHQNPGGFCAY
# Assay comment: flow cytometry, OX40L HEK minus WT HEK
Note: the reply should be a number with no unit written.

Enquiry: // lookup GEO mean difference for PMX052 (antibody, V domains shown, also called PMX52) VH: EVQLVESGGDLVKPAGSLRLSCVASGFTFSSYSMSWVRQAPEKGLQLVAGISGGGSRTYYSDAVKGRFTISRDNAKNTVYLQMNSLRAEDTAIYYCAKDGGSWAGYNFDYWGQGTLVTVSS VL: DIVMTQTPPSLSVSPRETASISCKASQSLLHSDGSTYLDWYLQKPGQSPQLLIYLGSNRFTGVSDRFSGSGSGTEFTLRISRVEANDTGVYYCGQGTQLPYTFGQGTELEIK
Return: 734000

Enquiry: // query: PMX292 (antibody, V domains shown) VH: AVQLVESGGDLVRPGGSLRLSCVASGFTFSNFDMYWVRQAPGRGLQWVATISYDGFNTYSTDTVRGRFTISRDNARNTVYLQMNSLRVEDTAVFYCTARRFGLGYWGQGTLVTVSS VL: DIFMAQTPPSLSVSPRETASISCKASQSLLHSDGNTYLDWYLQKPGQSPQLLIYLVSNRFPGVSDRFSGSGSGTGFTLRISRVEASDTGVYYCGQGTQLPYTFSQGTKLEIK
Return: 467000
